Assay: protein stability index of a GFP-peptide fusion (GPS, HEK-293T) (PSI 1-6); higher = more stable;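 further: 24-mer peptide tiles fused after GFP, lentivirally expressed, FACS-sorted into six equal bins by GFP/DsRed ratio, decoded by Illumina sequencing, PSI is the read-weighted mean bin number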
Settings: treatment: MLN4924 1 uM, 8 h; c terminus: a fixed tail appended
metric: protein stability index
Respond using a number only.

residue sequence | measurement
PAAPTPESFTVHFLPLNSAQTLHH [DNAAF3] | 3.02
LISHVLEQNQEGDAAYRKALDLAR [AUH] | 3.09
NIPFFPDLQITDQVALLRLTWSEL [NR2F2] | 2.12
LWWIAPGDETAHRIDSQFLIGDTL [MYORG] | 2.06
GIFKIEDSAQVARLWGIRKNRPAM [SPDEF] | 2.86

Could you share which protein stability index value was measured for FIWFVCSLVYYGLTLSAGDLGGSI [SLC22A15] ?
3

Name the reported protein stability index value associated with the sequence EPPCEGNTFFCHSNMCINNTLVCN [NETO1]
2.85

// protein stability index lookup, key: PRRFTFYPCVLATEGFTSGRHYWE [TRIM39]
2.19

What does the data say about its protein stability index? Entry: LSVRSVFFGVFQSFVVLLYILDNE [CLPTM1]
2.92

Entry PPPASQPVVKALFGASAAGGLSPV [CDC25A] has what protein stability index?
4.17

====

Experiment: protein stability index of a GFP-peptide fusion (GPS, HEK-293T) (PSI 1-6); higher = more stable
Conditions: treatment: MLN4924 1 uM, 8 h; c terminus: a fixed tail appended
metric: protein stability index
Give the value as a plain number.

As a guide, the following entries are already answered.
residue sequence | measurement
TVTSLQVPVLKPMDLMVEVSPRRI [PPP2R2C] | 2.65
AAPLPERNSLSAIFNNVMTLCAML [SLC29A1] | 2.57

Form field: reported protein stability index of LVNTSENLSKSRKILRSMSRKVTT [VTI1B]
3.57

Fill blank: measured protein stability index of the sequence QDSSVTSKRNIKKGAVPRSIPNLA [HDAC6] is ____.
4.21

Item under review: VHIETFTTRHGEVGSALHRESFTS [C10orf62] . Reported protein stability index?
2.47

====

Experiment: protein stability index of a GFP-peptide fusion (GPS, HEK-293T) (PSI 1-6); higher = more stable
Conditions: treatment: DMSO; c terminus: a fixed tail appended
Catalogue of protein stability index readings, one per entry.
Write the number on its own, no unit after it.

Item under review: TMTSSQSMNFSMMSTNTVGLGLPM [CLINT1] . Reported protein stability index?
3.02

GET /values?readout=protein stability index&item= HAAQGGPLLCPGCQGQPQGKAVVS [ELOA2]
3.9

protein stability index for QHSHVVRYFSAWAEDDHMLIQNEY [WEE1] ?
2.22

Name the recorded protein stability index for AFEPEALGNLVEGMDFHRFYFENA [CAMK2D] .
2.86

Fill in: protein stability index of MSAKLGKSSSLLTQTSEECNGILT [ZNF396] is ___
3.99

Can you share its protein stability index? I mean this sequence: HLEYRFYKQLGSAGEGLPQVYYFG [CSNK1G1]
2.2

====

Experiment: protein stability index of a GFP-peptide fusion (GPS, HEK-293T) (PSI 1-6); higher = more stable
Conditions: treatment: MLN4924 1 uM, 8 h; c terminus: a fixed tail appended
Mark NOT MET for protein stability index values under 3, and MET for everything at or above.

Before answering, review these 3 worked examples.
residue sequence | group label
DELIPEYLNFIRGVVDSEDLPLNI [HSP90AB1] | MET
GVMLTWPDGLMYQKFRNQFLSFSM [TMEM120A] | NOT MET
DIHITARIESDLTLESLSDEEIHP [DRICH1] | MET

Say whether VTFKLDDGAISAHKPLLICSCEWM [RHOBTB1] shows protein stability index of 3 or more.
NOT MET

Please tell me: is the sequence GPLVPRLAGMANHGSPQLGEGMFQ [TBX5] at or over 3 in terms of protein stability index?
MET

I'd appreciate it if you could say whether TPLASSTDHQTPPTSPVQGTTPQI [HDAC6] has protein stability index at least equal to 3.
MET

Quick check, protein stability index >= 3? LGPSLEDLFDLCDRTFTLKTVLMI [CSNK1G1]
NOT MET

# bool: protein stability index of HGVLSAEGFLFVFGGQDENKQTLS [GAN] >= 3
NOT MET

For this sequence, is measured protein stability index 3 or higher? WYRPMYKAFRSDSSFNFFVFFFIF [SCAMP3]
NOT MET

====

Experiment: protein stability index of a GFP-peptide fusion (GPS, HEK-293T) (PSI 1-6); higher = more stable
Settings: treatment: DMSO; c terminus: a fixed tail appended
metric: protein stability index
Response field accepts a number only; no unit should be typed.

residue sequence | measurement
EVILLVVMAYDRYMAICKPLHELI [OR4A15] | 3.26
KVRQLERDNAELEKLIQERSQQQE [KRT34] | 5.17
RGLSQNLFSNSDHQRDGTLGALHT [SASS6] | 3.87
WTTEQQQRFHEICSNLVKTRRRAV [ARL6IP1] | 2.8
PSSNEEIRLVDDAFGKICHMVSDG [INTS4] | 4.18

Now for the sequence whose protein stability index we want.
Which protein stability index reading was recorded for the sequence SPLHLVQMPPVIVETARSHQRSSS [PI4K2A] ?
4.22

====

Experiment: protein stability index of a GFP-peptide fusion (GPS, HEK-293T) (PSI 1-6); higher = more stable
Conditions: treatment: MLN4924 1 uM, 8 h; c terminus: a fixed tail appended
metric: protein stability index

residue sequence | protein stability index
MLQSFINYCLLFLIYTVMLAFRSG [SLC35F2] | 3.42
RYLADLLPSVFGSLRDSGYFYDPI [RSPH3] | 2.6
GVCMGLVAAACACGFTVAQIITSL [OR10K2] | 3.04
GLAFIAFTEAMTHFPASPFWSVMF [SLC6A17] | 3.13

So what does the record say about protein stability index for GPGTPTGPSLPSKRESPGVGGGSG [ZBTB22] ?
4.96

Looking for the measured protein stability index of VIKISYSTPQGKGEVVKIPSRVHG [PWWP2B] , can you help?
2.79

Quick check: protein stability index of RDMNGKSLDGKAIKVEQATKPSFE [RBMX] ?
5.24

Consider the sequence AEKVNQDMCMKVPDDPEHLAARRQ [CRYL1] and give its measured protein stability index.
5.15

====

Assay: protein stability index of a GFP-peptide fusion (GPS, HEK-293T) (PSI 1-6); higher = more stable
Settings: treatment: MLN4924 1 uM, 8 h; c terminus: a fixed tail appended
metric: protein stability index

Name the recorded protein stability index for QKALYRRLATVHMSRMINKYKRRR [CLPTM1] .
3.53

Can you share its protein stability index? I mean this sequence: ESAKDWETSPLPGMLAPAAGPAFD [PPFIA4]
4.61

Suppose we examine the sequence SGPEGNLNQIVTEPDANFPQFLHE [FAM104B] ; what protein stability index value has been reported?
4.93

====

Test: protein stability index of a GFP-peptide fusion (GPS, HEK-293T) (PSI 1-6); higher = more stable
Settings: treatment: DMSO; c terminus: a fixed tail appended
Record Met whenever protein stability index is at 4 or higher; record Not met when lower.

Recorded results for 2 sequences are shown here.
residue sequence | group label
SGTTLISVIVLDINDNAPTFQSSV [PCDHGC5] | Not met
AGSFSRRLIKRFSFKSKPKANGNP [C2CD2L] | Not met

Reported protein stability index reaches at least 4 for PCAGLNCQALDANLDANLAFASFT [TLE6] ?
Not met

Does protein stability index meet or surpass 4 for AVLRRIQLQPTSIEKEVFPIMAKE [GMPPB] ?
Not met

Hi team, for YSKPGLSMRLLESKKGLSFFAFEH [TCF25] , is the recorded protein stability index at or above 4?
Not met

Check the entry DQTGKEVADRWYSEIKNYNFQQPG [GLIPR2] : does protein stability index equal or exceed 4?
Met

# check: protein stability index of NQQLRNELQLEQSRAANQEQRAND [CEP70] is greater than or equal to 4
Met

Is the recorded value of protein stability index equal to or greater than 4 for this sequence? LQAKALQLIVTARTTRGLDPLFGM [INTS4]
Not met

Given the entry LPMATVDIKNPEITTNRFYGPQVN [WASL] , answer whether its protein stability index meets or surpasses 4.
Not met

Please tell me: is the sequence MAVLEEIQQELIKQEQSIISEYEK [RPAIN] at or over 4 in terms of protein stability index?
Met

====

Assay: protein stability index of a GFP-peptide fusion (GPS, HEK-293T) (PSI 1-6); higher = more stable
Settings: treatment: DMSO; c terminus: a fixed tail appended
metric: protein stability index
Give your answer as a number; write no unit.

Reference set, count: 10
residue sequence | protein stability index
TVTSLQVPVLKPMDLMVEVSPRRI [PPP2R2C] | 2.52
DNLLAAADKYALERLKVMCEEALC [SPOPL] | 2.75
DIDLSLYIPRDVDETGITVASLER [ZC3H15] | 3.19
DIHVGLRGVPLLEWETEVEMDKLR [CLCN6] | 3.98
CAVMNVVFITILIIALIALSVGQY [CD69] | 3.04
WYRPMYKAFRSDSSFNFFVFFFIF [SCAMP3] | 2.94
AVQAQAGWLQHDFGHLSVFSTSKW [FADS1] | 2.23
GDKGALQRLIVGNSALKDKEDQFG [INVS] | 4.62
TEELIVQTKQVYDAVGMLGIEEVT [NLN] | 4.23
KQNPGKFCLLSCGILTFLAVLGRY [RETREG3] | 2.33

Need protein stability index, item NSTGGDCFYRGYTSGVAAVQDWYH [SCNN1D]
2.36

For QAPGEENLLGEAAGGQDMADSMLM [HDAC6] , what is its reported protein stability index?
5.36

Return reported protein stability index; argument: DIGAVYSHRPNQHNTVKLGAFQAQ [PRIM1]
3.11
